Exercise: state measured MIC80 for each of the compounds provided.
Test system: Kluyveromyces marxianus
EXPERIMENTAL PROTOCOL: Antifungal activity against Candida kefyr by micro-broth dilution method
Assay type: functional

Below, 2 compounds whose answers are already recorded.
- COMPOUND: "N#Cc1cccc(/C=C/C(=O)Nc2ccc(-n3cnn(CC(O)(Cn4cncn4)c4ccc(F)cc4F)c3=O)cc2)c1 (single isomer, unassigned)"
  READOUT LABEL: "MIC80"
  RESULT: "> 64 µg/mL"
- COMPOUND: "COc1ccc(/C=C/C(=O)Nc2ccc(-n3cnn(CC(O)(Cn4cncn4)c4ccc(F)cc4F)c3=O)cc2)cc1OC (single isomer, unassigned)"
  READOUT LABEL: "MIC80"
  RESULT: "> 64 µg/mL"

Consider the following items and state reported MIC80 for each.
1. CCCc1ccc(C(=O)Nc2ccc(-n3cnn(CC(O)(Cn4cncn4)c4ccc(F)cc4F)c3=O)cc2)cc1 (single isomer, unassigned)
2. O=C(Nc1ccc(-n2cnn(CC(O)(Cn3cncn3)c3ccc(F)cc3F)c2=O)cc1)c1cccc(Cl)c1 (single isomer, unassigned)
3. O=C(/C=C/c1cccc([N+](=O)[O-])c1)Nc1ccc(-n2cnn(CC(O)(Cn3cncn3)c3ccc(F)cc3F)c2=O)cc1 (single isomer, unassigned)
4. O=C(/C=C/c1ccc(Cl)cc1)Nc1ccc(-n2cnn(CC(O)(Cn3cncn3)c3ccc(F)cc3F)c2=O)cc1 (single isomer, unassigned)

> 64 µg/mL
4 µg/mL
16 µg/mL
> 64 µg/mL
